Ref: paper PMC2363125

Entries annotated with measured pKi
- System: thymidine transport (nucleoside transporter) in L1210 cells
- assay.name: Inhibition kinetics of thymidine transport (Kt, Tmax, Dixon plot Ki)
- applied.conditions: read-out: Ki for inhibition of thymidine uptake; L1210, abstract
pKi here: minus log base 10 of the concentration, concentration in moles per litre.

> print(dat)
                                 mol.smiles                          target.or.system  quantitative.result
1  OCCN(CCO)c1nc(N2CCCCC2)c2nc(N(CCO)CCO)nc(N3CCCCC3)c2n1  thymidine transport (nucleoside transporter) in L1210 cells                 6.55

// pKi value for COc1ccc(CNc2nc(N(CCO)CCO)nc3c(NCc4ccc(OC)cc4)nc(N(CCO)CCO)nc23)cc1 : 7.00
